# Tgt: Voltage-gated potassium channel subunit beta-2 (Rattus norvegicus)
# Assay summary: inhibitors of rat Kvbeta2 reductase activity – biochemical, NADPH fluorescence, primary screen (AID 622);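 note: slope of raw intensity against log time taken from 70 to 1610 s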
# Setup conditions: recombinant KvBeta, 4-cyanobenzaldehyde reduction, at 10 µM, stronger effect = higher value
Decision: fluorescence slope >= -0.5 yields Criterion met, all other cases yield Criterion not met.

>  <Compound>
O=[n+]1cc(-c2ccc(F)cc2)n([O-])c2c1CCC2

>  <Tgt>
Voltage-gated potassium channel subunit beta-2 (Rattus norvegicus)

>  <Category label>
Criterion not met

$$$$

Problem: Check this compound for fluorescence slope at or above -0.5: O=C(c1ccc2nc(N3CCOCC3)sc2c1)N1CCCC1
Solution: Criterion not met

Problem: Textbook exercise: given the entry Cc1nc2sc(C(c3cccc(F)c3)N3CCCCC3)c(O)n2n1 (stereo unspecified) , state whether its fluorescence slope is greater than or equal to -0.5.
Solution: Criterion not met

Problem: hey, is fluorescence slope for this one >= -0.5? O=C1CC(C(=O)Nc2ccc(Br)cc2)C2(CCCC2)O1 (stereo unspecified)
Solution: Criterion met

Problem: Does fluorescence slope meet or surpass -0.5 for O=C(c1cc(S(=O)(=O)N2CCOCC2)ccc1F)N1CCCc2ccccc21 ?
Solution: Criterion met

Problem: # check: fluorescence slope of CC(c1ccco1)N(Cc1ccco1)C(=O)Nc1ccccc1 (stereo unspecified) is greater than or equal to -0.5
Solution: Criterion not met

Problem: Determine whether this compound has fluorescence slope no lower than -0.5: Cc1ccc2c(c1)CCCN2C(=O)Nc1ccc2c(c1)OCO2
Solution: Criterion not met

Problem: Is reported fluorescence slope greater than or equal to -0.5 here: Cc1ccc2cc(CN(Cc3ccc(F)cc3)Cc3nnnn3C3CCCC3)c(=O)[nH]c2c1
Solution: Criterion met

Problem: Could you verify whether the entry Cn1c(=O)c2c(nc(-n3ccnc3)n2C)n(C)c1=O shows fluorescence slope of no less than -0.5?
Solution: Criterion met

Problem: Form field: fluorescence slope at least -0.5? Entry: O=C(O)c1ccc(COc2c(F)c(F)cc(F)c2F)cc1
Solution: Criterion met

Problem: Dear colleague, could you confirm whether CC(NCc1ccco1)C(=O)N1CCc2ccccc2C1 (stereo unspecified) has fluorescence slope at or above -0.5?
Solution: Criterion met

====

Overview of reported fluorescence slope across a group of compounds:
# Tgt: Voltage-gated potassium channel subunit beta-2 (Rattus norvegicus)
# Assay summary: inhibitors of rat Kvbeta2 reductase activity – biochemical, NADPH fluorescence, primary screen (AID 622);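 note: slope of raw intensity against log time taken from 70 to 1610 s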
# Setup conditions: recombinant KvBeta, 4-cyanobenzaldehyde reduction, at 10 µM, stronger effect = higher value
The response must contain the number and no unit.

>  <Compound>
COc1ccc(-c2noc(CSc3nc(N)c(-c4ccccc4)c(=O)[nH]3)n2)cc1OC

>  <fluorescence slope>
-0.441

$$$$
>  <Compound>
CC(C)NC(=O)c1ccc2c(c1)nnn2C

>  <fluorescence slope>
-0.471

$$$$
>  <Compound>
CC(=O)Nc1ccc(NC(=O)Cn2cc3c(n2)CCC(C)C3)cc1 (stereo unspecified)

>  <fluorescence slope>
-0.284

$$$$
>  <Compound>
Clc1cccc(-c2nnc3sc(-c4ccccc4)nn23)c1

>  <fluorescence slope>
-0.372

$$$$
>  <Compound>
CC1Cc2nc(SCC(=O)Nc3ccc(F)cc3F)n(C)c(=O)c2S1 (stereo unspecified)

>  <fluorescence slope>
-0.587

$$$$
>  <Compound>
O=C(NCc1ccco1)c1ccc2c(=O)n(CC3CCCO3)c(=S)[nH]c2c1 (stereo unspecified)

>  <fluorescence slope>
-0.501

$$$$

Problem: Which fluorescence slope value belongs to CN1/C(=C\C(=O)Nc2cccnc2)c2ccccc2CC1(C)C ?
Solution: -0.401

Problem: What fluorescence slope value was documented for this compound, O=C(C1CCCN(S(=O)(=O)c2cccs2)C1)N1CCc2ccccc2C1 (stereo unspecified) ?
Solution: -0.586

Problem: Requested field: fluorescence slope. Item: CCc1nnc(NC(=O)c2ccc(COc3ccc(C)cc3)o2)s1
Solution: -0.468

Problem: What value of measured fluorescence slope is listed for CC(=O)c1coc2ccc(OCC(=O)O)cc12 ?
Solution: -0.598

Problem: Which fluorescence slope is reported for this compound? COC(=O)CNC(=O)COC(=O)c1cc(Cl)cc(Cl)c1N
Solution: -0.41

====

# Assay summary: inhibitors of TNFa-induced NFkB p65 translocation, primary screen, imaging, HUVEC, MLSMR starter and 10KST1 sets (AID 438);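 note: compound added about 3h40 before a 20 min TNFalpha stimulation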
# Setup conditions: HUVEC TNFa-induced p65 nuclear translocation; measured here: nuclei count (cytotoxicity indicator), at 2.08 µM
Binned cell count; ranges: bottom bin: < 400; middle bin: ≥ 400 and < 500; top bin: ≥ 500

# count of solved cases: 3
>  <Compound>
COc1ccc(-n2c(Cc3cccn3C)nnc2SCC(=O)Nc2cccc(C)c2C)cc1

>  <Category label>
top bin

$$$$
>  <Compound>
COc1cc(Br)cc(/C=N/c2ncn[nH]2)c1O

>  <Category label>
bottom bin

$$$$
>  <Compound>
COc1ccc(C2/C(=C(/O)c3ccccc3)C(=O)C(=O)N2C)cc1 (stereo not drawn)

>  <Category label>
middle bin

$$$$

Problem: Lab note: sort CC(=O)Nc1ccc(S(=O)(=O)Nc2nc3c(s2)CCCC3)cc1 into the matching cell count band.
Solution: top bin

Problem: Which class is correct for the following compound? CCOC(=O)Nc1c(O)ccc2oc(C)c(-c3ccccc3)c12
Solution: bottom bin

Problem: Form: Item = COc1ccc(C2CC(c3ccccc3)Nc3nc(NC(=O)c4cccs4)nn32)cc1 (stereo not drawn) ; Class = ?
Solution: middle bin

Problem: Field: class (cell count) — entry: COC(=O)c1ccc(CSc2nnc(-c3ccncc3)o2)o1
Solution: top bin

Problem: Class? Entry: CC1CCc2nn(CC(=O)NCc3ccc4c(c3)OCO4)cc2C1 (stereo not drawn)
Solution: top bin

====

# Tgt: Voltage-gated potassium channel subunit beta-2 (Rattus norvegicus) (UniProt P62483)
# Sequence (P62483 whole entry, looked up): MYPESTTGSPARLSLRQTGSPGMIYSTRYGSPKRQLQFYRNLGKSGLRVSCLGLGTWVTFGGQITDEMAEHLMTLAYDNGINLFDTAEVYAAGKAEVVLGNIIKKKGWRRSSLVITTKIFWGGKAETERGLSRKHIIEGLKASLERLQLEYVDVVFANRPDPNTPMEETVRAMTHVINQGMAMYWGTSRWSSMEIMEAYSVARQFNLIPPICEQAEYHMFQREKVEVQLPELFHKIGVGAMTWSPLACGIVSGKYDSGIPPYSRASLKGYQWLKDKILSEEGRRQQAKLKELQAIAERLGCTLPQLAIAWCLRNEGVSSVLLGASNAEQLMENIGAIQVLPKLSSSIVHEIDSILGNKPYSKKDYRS
# Assay summary: inhibitors of rat Kvbeta2 reductase activity – biochemical, NADPH fluorescence, primary screen (AID 622);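 note: slope of raw intensity against log time taken from 70 to 1610 s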
# Setup conditions: recombinant KvBeta, 4-cyanobenzaldehyde reduction, at 10 µM, stronger effect = higher value
Activity calls are given as the source filed them.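 Rule for the calls: active = fluorescence slope higher than the sample average by over 3 SD (cut at about -0.22 in these data, passing the limit was not always enough); inactive = the rest.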
Parameter: fluorescence slope. Scope: all listed entries.

Some solved entries appear below for comparison.
>  <Compound>
CCN(CC)C(=O)COC(=O)c1ccc(O)cc1

>  <fluorescence slope>
-0.512 (inactive)

$$$$
>  <Compound>
COc1ccc(N=c2scc(-c3ccc(S(=O)(=O)N4CCOCC4)cc3)n2CCCO)cc1

>  <fluorescence slope>
-0.319 (inactive)

$$$$
>  <Compound>
CCOC(=O)c1cccc(NC2c3ccccc3C(=O)N2Cc2ccco2)c1 (stereo not given)

>  <fluorescence slope>
-0.554 (inactive)

$$$$
>  <Compound>
Cc1cccc(-c2c3c(=O)n(C)c(=O)n(C)c3cn2-c2ccc(O)cc2)c1

>  <fluorescence slope>
-0.579 (inactive)

$$$$

Problem: Tell me the measured fluorescence slope of CCOC(=O)C(CC)Sc1nc2c(c(=O)[nH]c(=O)n2C)n1C/C=C(/C)Cl (stereo not given) , please.
Solution: -0.601 (inactive)

====

# Assay summary: endothelial E-selectin expression blockers – imaging, HUVEC, immunofluorescence, MLSMR starter and 10KST1 sets, primary screen (AID 487);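 note: signal is fraction of cell area covered by stained E-selectin grains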
# Setup conditions: HUVEC TNFalpha-induced E-selectin immunofluorescence imaging, at 2 µM; stronger effect = higher value
inhibition by entry:
Please respond with the number in % and leave the unit unwritten.

>  <Molecule>
CCOC(=O)C(NC(=O)c1ccccc1)(Nc1cc(C)on1)C(F)(F)F (stereo unspecified)

>  <Value observed>
0.6

$$$$
>  <Molecule>
COc1ccc(C(C(C(=O)c2ccco2)N2CCOCC2)N2CCOCC2)cc1 (stereo unspecified)

>  <Value observed>
57.2

$$$$
>  <Molecule>
Cc1cc(C(F)(F)F)nc(NCc2cccnc2)n1

>  <Value observed>
-79.3

$$$$
>  <Molecule>
Cc1cccc2cc(COC(=O)C(C)(C)C)c(=O)[nH]c12

>  <Value observed>
14.2

$$$$
>  <Molecule>
COC(=O)c1cccc(NC(=O)CSc2nnc(COc3ccc(C#N)cc3)n2-c2ccccc2)c1

>  <Value observed>
-64.7

$$$$

Problem: Return reported inhibition; argument: CCC(CO)Nc1ncnc2c1cnn2-c1ccc(Cl)cc1 (stereo unspecified)
Solution: 10.3

Problem: Find the recorded inhibition belonging to Cc1c(C)n(C)c2ccc(C(=O)NCc3cccs3)cc12 and report it.
Solution: 11.8

Problem: May I ask what inhibition has been recorded for COc1cc(-n2nc(C)c3c2OC(N)=C(C#N)C3c2ccccc2)c(Cl)c(Br)c1O (stereo unspecified) ?
Solution: -8.7

====

The molecules listed here are annotated with their slope.
# Tgt: Alpha-2C adrenergic receptor (Homo sapiens)
# Assay summary: compounds altering alpha2C-coupled GIRK flux – cell-based, HEK293 alpha2C/GIRK1/2, thallium flux, primary screen (AID 624);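 note: slope of fluorescence ratio to pre-addition baseline per second over 15 to 24 s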
# Setup conditions: thallium flux BTC fluorescence, at 10 µM, actives lie on both sides
// response body must contain only the number

>  <Molecule>
CC(=O)NC(CCS(C)(=O)=O)C(=O)Nc1cccc2ccccc12 (stereo unspecified)

>  <slope>
0.006

$$$$
>  <Molecule>
CCOc1ccc(CN2C(=O)c3ccccc3C2C(=O)NCc2cccnc2)cc1 (stereo unspecified)

>  <slope>
0.00638

$$$$
>  <Molecule>
Cc1cccc(-c2cc3nc4c(c(N5CCC6(CC5)OCCO6)n3n2)CCCC4)c1

>  <slope>
0.00699

$$$$
>  <Molecule>
C#CCNc1c(C)c(C)nc2ncnn12

>  <slope>
0.00371

$$$$
>  <Molecule>
c1ccc(Cn2nnc3c(N4CCCCCC4)ncnc32)cc1

>  <slope>
0.0062

$$$$
>  <Molecule>
COc1ccccc1Cn1nnc2c(=O)[nH]c(C3CCN(C(=O)c4ccccc4Cl)CC3)nc21

>  <slope>
0.00545

$$$$

Below: the item to evaluate.
Problem: Entry under review: Fc1ccc(NCc2nnc(SCc3nnc(-c4ccccc4)o3)n2CC2CCCO2)cc1 (stereo unspecified) . Reported slope?
Solution: 0.00596
